tested on: NCI-H64 (Small Cell Lung Carcinoma); assay: combination Emax (second highest fraction inhibited in the dose matrix, 72 h); higher = more inhibition; extreme values may be limits of the assay

Compound: CC1(C)CCC(CN2CCN(c3ccc(C(=O)NS(=O)(=O)c4ccc(NCC5CCOCC5)c([N+](=O)[O-])c4)c(Oc4cnc5[nH]ccc5c4)c3)CC2)=C(c2ccc(Cl)cc2)C1 [Venetoclax] + COc1cc(Nc2ncc3c(n2)-c2ccc(Cl)cc2C(c2c(F)cccc2OC)=NC3)ccc1C(=O)O [Alisertib] (first compound max 1 µM, 7x7, partner max 10 µM)
combination Emax: 0.692

Compound: NC1(C(=O)N[C@@H](CCO)c2ccc(Cl)cc2)CCN(c2ncnc3[nH]ccc23)CC1 [Capivasertib] + Cn1cnc2c(F)c(Nc3ccc(Br)cc3Cl)c(C(=O)NOCCO)cc21 [Selumetinib] (first compound max 10 µM, 7x7, partner max 10 µM)
combination Emax: 0.321

----------
system: KARPAS-422 (B-Cell Non-Hodgkin's Lymphoma); test: combination Emax (second highest fraction inhibited in the dose matrix, 72 h); higher = more inhibition; extreme values may be limits of the assay
Category | rule: reported combination Emax within range, see bin 0 (below 0.6), bin 1 (0.6 to below 0.9), bin 2 (0.9 or more)

Compound: O=C(c1cc(Cc2n[nH]c(=O)c3ccccc23)ccc1F)N1CCN(C(=O)C2CC2)CC1 [Olaparib] + COc1nnc2ccc(N3CCC(c4ccc(OCCN5CCN(C)C(=O)[C@H]5C)cc4)CC3)nn12 [AZD5153] (first compound max 10 µM, 7x7, partner max 1 µM)
Assigned Category: bin 1
--
Compound: N#Cc1cnc(Nc2cc(NC[C@H]3CNCCO3)c(C(F)(F)F)cn2)cn1 [SRA737] + Nc1ccn([C@@H]2O[C@H](CO)[C@@H](O)C2(F)F)c(=O)n1 [Gemcitabine] (first compound max 10 µM, 7x7, partner max 0.3 µM)
Assigned Category: bin 1
--
Compound: COc1cc2c(cc1OCCCCCOc1cc3c(cc1OC)C(=O)N1C=C(C)C[C@H]1C=N3)N=C[C@@H]1CC(C)=CN1C2=O [SG3199] + O=C(c1cc(Cc2n[nH]c(=O)c3ccccc23)ccc1F)N1CCN(C(=O)C2CC2)CC1 [Olaparib] (first compound max 0.001 µM, 7x7, partner max 10 µM)
Assigned Category: bin 0
--
Compound: CCN(CCO)CCCOc1ccc2c(Nc3cc(CC(=O)Nc4cccc(F)c4)[nH]n3)ncnc2c1 [AZD2811] + O=C(c1cc(Cc2n[nH]c(=O)c3ccccc23)ccc1F)N1CCN(C(=O)C2CC2)CC1 [Olaparib] (first compound max 1 µM, 7x7, partner max 10 µM)
Assigned Category: bin 0
--
Compound: Cc1cc2ncnn2cc1Nc1ncc2c(n1)n(C1CCOCC1)c(=O)n2C [AZD7648] + CCN(CCO)CCCOc1ccc2c(Nc3cc(CC(=O)Nc4cccc(F)c4)[nH]n3)ncnc2c1 [AZD2811] (first compound max 10 µM, 7x7, partner max 1 µM)
Assigned Category: bin 0
--
Compound: Cn1cnc2c(F)c(Nc3ccc(Br)cc3Cl)c(C(=O)NOCCO)cc21 [Selumetinib] + CC(C)n1c(=O)n(C)c2cnc3cc(F)c(-c4ccc(OCCCN5CCCCC5)nc4)cc3c21 [AZD1390] (first compound max 10 µM, 7x7, partner max 0.3 µM)
Assigned Category: bin 0
--
Compound: Cc1c2c(nn1C)CSCc1cc(n(C)n1)CSc1cc(c3ccccc3c1)OCCCc1c(C(=O)O)n(C)c3c-2c(Cl)ccc13 [AZD5991] + C[C@@H](Nc1cc(F)cc(F)c1)c1cc(C(=O)N(C)C)cc2c(=O)cc(N3CCOCC3)oc12 [AZD8186] (first compound max 1 µM, 7x7, partner max 3 µM)
Assigned Category: bin 2
--
Compound: CCN(CCO)CCCOc1ccc2c(Nc3cc(CC(=O)Nc4cccc(F)c4)[nH]n3)ncnc2c1 [AZD2811] + C[C@@H]1COCCN1C2=NC(=NC(=C2)C3(CC3)[S@](=N)(=O)C)C4=C5C=CNC5=NC=C4 [AZD6738] (first compound max 1 µM, 7x7, partner max 10 µM)
Assigned Category: bin 0
--
Compound: CC1(C)CCC(CN2CCN(c3ccc(C(=O)NS(=O)(=O)c4ccc(NCC5CCOCC5)c([N+](=O)[O-])c4)c(Oc4cnc5[nH]ccc5c4)c3)CC2)=C(c2ccc(Cl)cc2)C1 [Venetoclax] + C[C@@H]1COCCN1C2=NC(=NC(=C2)C3(CC3)[S@](=N)(=O)C)C4=C5C=CNC5=NC=C4 [AZD6738] (first compound max 1 µM, 7x7, partner max 10 µM)
Assigned Category: bin 2
--
Compound: COc1cc2ncnc(Nc3ccc(F)c(Cl)c3)c2cc1OCCCN1CCOCC1 [Gefitinib] + CC(C)n1c(=O)n(C)c2cnc3cc(F)c(-c4ccc(OCCCN5CCCCC5)nc4)cc3c21 [AZD1390] (first compound max 10 µM, 7x7, partner max 0.3 µM)
Assigned Category: bin 0
--
Compound: COc1nnc2ccc(N3CCC(c4ccc(OCCN5CCN(C)C(=O)[C@H]5C)cc4)CC3)nn12 [AZD5153] + CC1(C)CCC(CN2CCN(c3ccc(C(=O)NS(=O)(=O)c4ccc(NCC5CCOCC5)c([N+](=O)[O-])c4)c(Oc4cnc5[nH]ccc5c4)c3)CC2)=C(c2ccc(Cl)cc2)C1 [Venetoclax] (first compound max 1 µM, 7x7, partner max 1 µM)
Assigned Category: bin 2
